Below, each of the compounds is paired with its reported pIC50 value.
Experiment: Cytotoxicity against human Hs683 cells after 72 hrs by MTT assay
Format: functional, cell-based, Hs 683
Settings: Homo sapiens, Hs 683, 72 h; read-out: IC50
pIC50: −log10 of the molar value.
Quantity: pIC50

>>> print(df.to_string())
                                   compound  quantity  bound_sign  measured
0  CC1=C(CC/C(C)=C/CC[C@@]2(C)CC[C@H]([C@H](C)C(=O)O)OO2)C(C)(C)CCC1     pIC50           =      5.40
1  CC1=C(CC[C@]2(C)O[C@H]2CC[C@]2(C)CC[C@@H]([C@@H](C)C(=O)O)OO2)C(C)(C)CCC1 (relative stereo)     pIC50           =      5.52
2  C=C1CCC[C@@H]2[C@@H](CC[C@@]3(C)CC[C@H]([C@H](C)C(=O)O)OO3)[C@H](C)CC[C@@]12C     pIC50           <      4.00
3  C/C(=C\CC[C@]1(C)CC[C@@H]([C@@H](C)C(=O)O)OO1)CCC12OC1(C)CCCC2(C)C (relative stereo)     pIC50           =      5.52
4  C=C1CCCC(C)(C)C1(O)CC/C(C)=C/CC[C@]1(C)CC[C@@H]([C@@H](C)C(=O)O)OO1 (some centres not stated) [HURGHAPEROXIDE]     pIC50           =      4.43
5  C=C1CCC[C@@H]2[C@@](C)(CC[C@@]3(C)CC[C@H]([C@H](C)C(=O)OC)OO3)[C@H](C)CC[C@@]12C     pIC50           =      4.46
6  COC(=O)[C@H](C)[C@H]1CC[C@@](C)(CCC2=C(C)CCCC2(C)C)OO1     pIC50           =      4.42
